Hello, the source for this data is patent US7087623B2, in case you need it.

targetOrSystem: human serotonin 5-HT2C receptor (Homo sapiens, UniProt P28335)
Construct: expressed in transfected cells; host or cells: CHO-K1
Sequence (P28335 33-458): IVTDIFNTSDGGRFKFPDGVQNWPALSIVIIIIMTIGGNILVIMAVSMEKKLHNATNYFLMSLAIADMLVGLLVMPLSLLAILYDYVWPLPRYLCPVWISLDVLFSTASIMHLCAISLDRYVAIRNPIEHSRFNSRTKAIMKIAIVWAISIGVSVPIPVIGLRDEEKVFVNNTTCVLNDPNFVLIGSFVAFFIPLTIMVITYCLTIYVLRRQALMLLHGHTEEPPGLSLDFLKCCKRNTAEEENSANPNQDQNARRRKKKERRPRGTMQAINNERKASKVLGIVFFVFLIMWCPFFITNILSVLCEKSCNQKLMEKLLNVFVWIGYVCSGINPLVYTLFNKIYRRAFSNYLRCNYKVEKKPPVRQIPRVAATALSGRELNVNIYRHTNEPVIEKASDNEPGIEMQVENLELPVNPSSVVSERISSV
assayProcedure: Radioligand binding assay, human 5-HT2C receptors ([3H]Mesulergine)
assaySetup: human; Example 100 table; read-out: IC50 (nM) 5-HT2C
Protocol: The human 5-HT2a and 5-HT2b screens were conducted according to Bonhaus, D. W. et al. Br. J. Pharmacol. 1995, 115, 622. The human 5-HT2c screen was conducted according to Wolf, W. A. et al. J. Neurochem. 1997, 69, 1449. The human 5-HT6 screen was conducted according to Monsma, F. J. et al. Mol. Pharmacol. 1993, 43, 320. […]

molecule	IC50
Clc1ccc(C2(c3csc(NCCCN4CCOCC4)n3)CCCCC2)cc1 [Compound 94]	< 1000 nM
CN1CCCC1CCNc1nc(C2(c3ccc(Cl)cc3)CCCCC2)cs1 (stereo not drawn) [Compound 95]	< 1000 nM
CN1CCCN(c2nc(C3(c4ccccc4F)CCCC3)cs2)CC1 [Compound 139]	< 100 nM
CNC1CCN(c2nc(C3(c4ccc(Cl)cc4)CCCCC3)cs2)C1 (stereo not drawn) [Compound 106]	> 1000 nM
CN1CCCN(c2nc(C3(c4ccc(Cl)cc4)CCCC3)cs2)CC1 [Compound 105]	< 1000 nM
COc1cccc(C2(c3csc(N4CCN(C)CC4)n3)CCOCC2)c1 [Compound 67]	> 1000 nM
Fc1ccccc1C1(c2csc(NCCCN3CCOCC3)n2)CCCC1 [Compound 96]	> 1000 nM
Clc1ccc(C2(c3csc(N4CCOCC4)n3)CCOCC2)cc1 [Compound 124]	> 1000 nM
CN1CCCC1CCNc1nc(C2(c3ccccc3F)CCCCC2)cs1 (racemic) [Compound 128]	< 10 nM

* * *

targetOrSystem: human dopamine D3 receptor (Homo sapiens, UniProt P35462)
Construct: expressed in transfected cells; host or cells: CHO
Sequence (P35462 whole entry): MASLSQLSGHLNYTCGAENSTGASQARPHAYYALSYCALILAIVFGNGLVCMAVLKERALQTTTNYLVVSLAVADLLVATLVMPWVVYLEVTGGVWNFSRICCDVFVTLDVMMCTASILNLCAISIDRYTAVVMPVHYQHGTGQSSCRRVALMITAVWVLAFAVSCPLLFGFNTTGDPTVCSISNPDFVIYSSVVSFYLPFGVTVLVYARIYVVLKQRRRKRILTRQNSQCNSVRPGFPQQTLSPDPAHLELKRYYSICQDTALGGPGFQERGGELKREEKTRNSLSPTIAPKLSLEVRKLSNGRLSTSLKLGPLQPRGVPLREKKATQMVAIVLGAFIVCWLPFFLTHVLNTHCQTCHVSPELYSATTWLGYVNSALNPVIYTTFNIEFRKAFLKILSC
assayProcedure: Radioligand binding assay, human dopamine D3 receptors ([3H]Spiperone)
assaySetup: IC50 (nM) Against Human D3 Receptors, Example 20 table
observable: IC50

compound	targetOrSystem	recordedValue
CN1CCN(c2nc(C3(c4ccccc4)CCOCC3)cs2)CC1	human dopamine D3 receptor (Homo sapiens, UniProt P35462)	> 1000 nM
CN1CCCC1CCNc1nc(C2(c3ccc(Cl)cc3)CCC2)no1 (stereo not shown)	human dopamine D3 receptor (Homo sapiens, UniProt P35462)	> 1000 nM
CN1CCN(c2nc(C3(c4ccc(Cl)cc4)CCOCC3)cs2)CC1	human dopamine D3 receptor (Homo sapiens, UniProt P35462)	< 1000 nM
CN1CCN(c2nc(C3(c4ccc(F)cc4)CCOCC3)cs2)CC1	human dopamine D3 receptor (Homo sapiens, UniProt P35462)	> 1000 nM

* * *

Listed below: IC50 values for each entry.
targetOrSystem: human serotonin 5-HT6 receptor (Homo sapiens)
Construct: expressed in transfected cells; host or cells: HeLa/E6-7
Sequence (P50406 whole entry): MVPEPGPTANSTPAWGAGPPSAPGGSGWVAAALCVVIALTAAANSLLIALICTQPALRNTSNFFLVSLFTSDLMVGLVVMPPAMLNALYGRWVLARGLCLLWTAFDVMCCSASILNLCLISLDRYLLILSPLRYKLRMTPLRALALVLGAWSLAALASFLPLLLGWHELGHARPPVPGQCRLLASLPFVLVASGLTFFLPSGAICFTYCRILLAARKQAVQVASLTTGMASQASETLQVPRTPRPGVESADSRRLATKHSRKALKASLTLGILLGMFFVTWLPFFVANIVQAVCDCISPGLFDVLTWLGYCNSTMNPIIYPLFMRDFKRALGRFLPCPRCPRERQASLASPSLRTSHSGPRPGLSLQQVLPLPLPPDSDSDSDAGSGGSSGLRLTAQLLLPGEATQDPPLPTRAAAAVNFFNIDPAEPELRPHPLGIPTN
assayProcedure: Radioligand binding assay, human 5-HT6 receptors ([3H]LSD)
assaySetup: IC50 (nM) 5-HT6, human 5-HT6; Example 16 table
observable: IC50

compound	observable	recordedValue
CN1CCN(c2nc(C3(c4ccc(F)cc4)CCOCC3)cs2)CC1	IC50	< 1000 nM
CN1CCN(c2nc(C3(c4ccccc4)CCOCC3)cs2)CC1	IC50	< 100 nM
CN1CCCC1CCNc1nc(C2(c3ccc(Cl)cc3)CCC2)no1 (stereo not shown)	IC50	> 1000 nM
CN1CCN(c2nc(C3(c4ccc(Cl)cc4)CCOCC3)cs2)CC1	IC50	< 100 nM
